# experimentalSystem: [Pyruvate dehydrogenase (acetyl-transferring)] kinase isozyme 2, mitochondrial (Homo sapiens)
pKd: −log10 of the molar value.

# compoundStructureString, pKd
records = [
    ("Oc1ccc(-c2nnc(S)n2-c2cccc3ccccc23)c(O)c1", 5.17),
]

====

# experimentalSystem: [Pyruvate dehydrogenase (acetyl-transferring)] kinase isozyme 2, mitochondrial (Homo sapiens, UniProt Q15119)
pIC50: −log10 of the molar value.
We begin with a simple list: items and their reported pIC50.
reportedEndpoint: pIC50

# compound, reportedEndpoint, measuredValue
data = [
    ("Oc1ccc(-c2nnc(S)n2-c2cccc3ccccc23)c(O)c1 [Resorcinol analog, 1]", "pIC50", 5.42),
    ("O=C(O)C(Cl)Cl [DCA]", "pIC50", 3.74),
]

====

# experimentalSystem: Heat shock protein HSP 90-alpha [1-236] (Homo sapiens, UniProt P07900)
reportedEndpoint: Kd (nM)

# compoundStructureString, measuredValue
data = [
    ("Oc1ccc(-c2nnc(S)n2-c2cccc3ccccc23)c(O)c1", 25),
]

// data source = BindingDB's records for doi:10.1074/jbc.M113.533885
